Data origin: ChEMBL document CHEMBL1141662

- Test protocol: Antiproliferative activity against human KB 3.1 cells assessed as cell viability at 10 uM after 24 hrs by MTT assay
- Type: functional
- Conditions: KB 3-1, 24 h, read-out: Activity
Observable: viability at 10 µM (%)
Answer with a number only, understood to be in %.

> print(dat)
                                chem.smiles  units.label  reading
1  CC(=O)Oc1cc(OC(C)=O)c2c(=O)c3cccc(/C=N\NC4=NCCN4)c3oc2c1            %       66
2  O=c1c2cc(/C=N/Nc3ccccn3)ccc2oc2cc(O)cc(O)c12            %       90
3  O=c1c2ccc(/C=N/Nc3ccccn3)cc2oc2cc(O)cc(O)c12            %        2
4  CC(=O)Oc1cc(OC(C)=O)c2c(=O)c3cc(/C=N/Nc4ccccc4)ccc3oc2c1            %      100
5  CC(=O)Oc1cc(OC(C)=O)c2c(=O)c3cccc(/C=N\Nc4ccccc4)c3oc2c1            %       82

Query: Kindly indicate its recorded viability at 10 µM. Item: CC(=O)Oc1cc(OC(C)=O)c2c(=O)c3ccc(/C=N/NC4=NCCN4)cc3oc2c1
Reply: 13

Query: Tell me measured viability at 10 µM for O=c1c2cc(/C=N/NC3=NCCN3)ccc2oc2cc(O)cc(O)c12 please.
Reply: 92

Query: Hello, please tell me recorded viability at 10 µM for this one: CC(=O)Oc1cc(OC(C)=O)c2c(=O)c3ccc(/C=N/Nc4ccccc4)cc3oc2c1
Reply: 100

---

- Test protocol: Antiproliferative activity against human KB 3.1 cells assessed as cell viability at 10 uM after 24 hrs by MTT assay
- Format: functional
- Conditions: KB 3-1, 24 h, read-out: Activity
Observable: viability at 10 µM (%)
Write down the numeric answer in % and omit the unit.

Query: # return recorded viability at 10 µM for input O=c1c2ccc(/C=N/NC3=NCCN3)cc2oc2cc(O)cc(O)c12
Reply: 80

Query: Return value of viability at 10 µM for input CC(=O)Oc1cc(OC(C)=O)c2c(=O)c3cc(/C=N/Nc4ccccn4)ccc3oc2c1 , no commentary.
Reply: 60

Query: Answer with the recorded viability at 10 µM of CC(=O)Oc1cc(OC(C)=O)c2c(=O)c3cccc(/C=N\Nc4ccccn4)c3oc2c1 only.
Reply: 90

Query: Tell me measured viability at 10 µM for CC(=O)Oc1cc(OC(C)=O)c2c(=O)c3cc(/C=N/NC4=NCCN4)ccc3oc2c1 please.
Reply: 14

Query: Report measured viability at 10 µM; entry is O=c1c2cccc(/C=N\Nc3ccccc3)c2oc2cc(O)cc(O)c12
Reply: 96

Query: // Input: O=c1c2ccc(/C=N/Nc3ccccc3)cc2oc2cc(O)cc(O)c12 . Output its viability at 10 µM only.
Reply: 61

Query: Annotate the compound O=c1c2cc(/C=N/Nc3ccccc3)ccc2oc2cc(O)cc(O)c12 with its measured viability at 10 µM.
Reply: 82

Query: Hello, please tell me recorded viability at 10 µM for this one: CC(=O)Oc1cc(OC(C)=O)c2c(=O)c3ccc(/C=N/Nc4ccccn4)cc3oc2c1
Reply: 87

Query: Return reported viability at 10 µM. Input compound: O=c1c2cccc(/C=N\Nc3ccccn3)c2oc2cc(O)cc(O)c12
Reply: 3

Query: Identify the reported viability at 10 µM for the following entry. O=c1c2cccc(/C=N\NC3=NCCN3)c2oc2cc(O)cc(O)c12
Reply: 75

---

Each entry below carries its reported viability at 1 µM.
- System: MCF7
- Test protocol: Antiproliferative activity against human MCF7 cells assessed as cell viability at 1 uM after 24 hrs by MTT assay
- Format: functional
- Conditions: MCF7, 24 h, read-out: Activity
I only need the number, in %, no unit after it.

Illustrative cases are given below, each with its answer.
> print(dat)
                                chem.smiles  reading
1  CC(=O)Oc1cc(OC(C)=O)c2c(=O)c3ccc(/C=N/Nc4ccccn4)cc3oc2c1      100
2  O=c1c2ccc(/C=N/Nc3ccccn3)cc2oc2cc(O)cc(O)c12      100
3  O=c1c2cccc(/C=N\Nc3ccccc3)c2oc2cc(O)cc(O)c12      100

Query: # return viability at 1 µM of CC(=O)Oc1cc(OC(C)=O)c2c(=O)c3cccc(/C=N\Nc4ccccn4)c3oc2c1 (system: MCF7)
Reply: 80

Query: Give the observed viability at 1 µM of CC(=O)Oc1cc(OC(C)=O)c2c(=O)c3cc(/C=N/Nc4ccccc4)ccc3oc2c1 for MCF7.
Reply: 100

Query: Jot down viability at 1 µM (MCF7) of O=c1c2ccc(/C=N/Nc3ccccc3)cc2oc2cc(O)cc(O)c12 .
Reply: 100

Query: Provide viability at 1 µM, recorded with MCF7, of CC(=O)Oc1cc(OC(C)=O)c2c(=O)c3cc(/C=N/NC4=NCCN4)ccc3oc2c1
Reply: 64

Query: GET viability at 1 µM where system = MCF7 and item = O=c1c2ccc(/C=N/NC3=NCCN3)cc2oc2cc(O)cc(O)c12
Reply: 73

Query: Provide viability at 1 µM, system MCF7, entry CC(=O)Oc1cc(OC(C)=O)c2c(=O)c3cccc(/C=N\Nc4ccccc4)c3oc2c1
Reply: 100

Query: Under MCF7, report viability at 1 µM for O=c1c2cccc(/C=N\Nc3ccccn3)c2oc2cc(O)cc(O)c12
Reply: 86

Query: # assay system MCF7: give viability at 1 µM of CC(=O)Oc1cc(OC(C)=O)c2c(=O)c3cccc(/C=N\NC4=NCCN4)c3oc2c1
Reply: 80

Query: Please report viability at 1 µM with MCF7 for item O=c1c2cc(/C=N/Nc3ccccn3)ccc2oc2cc(O)cc(O)c12 .
Reply: 58

---

- Tested on: MCF7
- Test protocol: Antiproliferative activity against human MCF7 cells assessed as cell viability at 10 uM after 24 hrs by MTT assay
- Format: functional
- Conditions: MCF7, 24 h, read-out: Activity
Friendly reminder: viability at 10 µM below 70% is 1 (yes), at or above is 0 (no).

> print(dat)
                                 chem.smiles  assigned.label
 1  CC(=O)Oc1cc(OC(C)=O)c2c(=O)c3ccc(/C=N/Nc4ccccn4)cc3oc2c1          0 (no)
 2  O=c1c2ccc(/C=N/Nc3ccccn3)cc2oc2cc(O)cc(O)c12         1 (yes)
 3  O=c1c2ccc(/C=N/Nc3ccccc3)cc2oc2cc(O)cc(O)c12          0 (no)
 4  CC(=O)Oc1cc(OC(C)=O)c2c(=O)c3cc(/C=N/NC4=NCCN4)ccc3oc2c1         1 (yes)
 5  O=c1c2cc(/C=N/Nc3ccccn3)ccc2oc2cc(O)cc(O)c12         1 (yes)
 6  O=c1c2cc(/C=N/NC3=NCCN3)ccc2oc2cc(O)cc(O)c12         1 (yes)
 7  CC(=O)Oc1cc(OC(C)=O)c2c(=O)c3ccc(/C=N/NC4=NCCN4)cc3oc2c1         1 (yes)
 8  O=c1c2cccc(/C=N\NC3=NCCN3)c2oc2cc(O)cc(O)c12          0 (no)
 9  CC(=O)Oc1cc(OC(C)=O)c2c(=O)c3cc(/C=N/Nc4ccccc4)ccc3oc2c1          0 (no)
10  CC(=O)Oc1cc(OC(C)=O)c2c(=O)c3cccc(/C=N\Nc4ccccn4)c3oc2c1          0 (no)

Query: Is viability at 10 µM strictly under 70% for the entry O=c1c2cccc(/C=N\Nc3ccccc3)c2oc2cc(O)cc(O)c12 ?
Reply: 0 (no)

Query: Could you please tell me whether viability at 10 µM recorded for CC(=O)Oc1cc(OC(C)=O)c2c(=O)c3cccc(/C=N\Nc4ccccc4)c3oc2c1 is less than 70%?
Reply: 0 (no)

Query: Does this compound meet the criterion viability at 10 µM < 70%? CC(=O)Oc1cc(OC(C)=O)c2c(=O)c3cccc(/C=N\NC4=NCCN4)c3oc2c1
Reply: 1 (yes)

Query: Please state whether viability at 10 µM is below 70% for CC(=O)Oc1cc(OC(C)=O)c2c(=O)c3ccc(/C=N/Nc4ccccc4)cc3oc2c1
Reply: 0 (no)

Query: In plain terms, does O=c1c2cccc(/C=N\Nc3ccccn3)c2oc2cc(O)cc(O)c12 come in under 70% for viability at 10 µM?
Reply: 1 (yes)

---

- Test protocol: Antiproliferative activity against human KB 3.1 cells assessed as cell viability at 1 uM after 24 hrs by MTT assay
- Assay type: functional
- Conditions: KB 3-1, 24 h, read-out: Activity
Observable: viability at 1 µM (%)
Give just the numeric value; % need not be written.

# count of solved cases: 7
> print(dat)
                                chem.smiles         observable  reading
1  O=c1c2cc(/C=N/Nc3ccccn3)ccc2oc2cc(O)cc(O)c12  viability at 1 µM       95
2  CC(=O)Oc1cc(OC(C)=O)c2c(=O)c3cc(/C=N/NC4=NCCN4)ccc3oc2c1  viability at 1 µM      100
3  O=c1c2cccc(/C=N\NC3=NCCN3)c2oc2cc(O)cc(O)c12  viability at 1 µM       90
4  O=c1c2cccc(/C=N\Nc3ccccn3)c2oc2cc(O)cc(O)c12  viability at 1 µM       96
5  CC(=O)Oc1cc(OC(C)=O)c2c(=O)c3cccc(/C=N\Nc4ccccn4)c3oc2c1  viability at 1 µM       95
6  CC(=O)Oc1cc(OC(C)=O)c2c(=O)c3ccc(/C=N/Nc4ccccc4)cc3oc2c1  viability at 1 µM      100
7  CC(=O)Oc1cc(OC(C)=O)c2c(=O)c3ccc(/C=N/Nc4ccccn4)cc3oc2c1  viability at 1 µM      100

Next item in the queue.
Query: Give me measured viability at 1 µM, please, for this compound: CC(=O)Oc1cc(OC(C)=O)c2c(=O)c3ccc(/C=N/NC4=NCCN4)cc3oc2c1
Reply: 85
